The reported numbers originate from ChEMBL document CHEMBL1141626.

- System: Cutibacterium acnes
- runDescription: Antimicrobial activity against Propionibacterium acnes NCTC 737 after 48 hrs
- Type: functional
- conditions: NCTC 737, 48 h
measurementLabel: MIC (µg/mL)
Report as a plain number; the unit µg/mL is understood.

Which measured MIC value corresponds to CC(C)NC(=S)N/N=C/C=C/c1ccco1 ? 32

Which measured MIC value corresponds to CCNC(=S)N/N=C/c1ccc([N+](=O)[O-])o1 ? 16

Which measured MIC value corresponds to CC(C)NC(=S)N/N=C/c1ccc([N+](=O)[O-])o1 ? 64

Which measured MIC value corresponds to CC(C)NC(=S)N/N=C/C=C/c1ccc([N+](=O)[O-])o1 ? 32

Which measured MIC value corresponds to CCNC(=S)N/N=C/C=C/c1ccco1 ? 16

----------
- Test system: Cutibacterium acnes
- runDescription: Antimicrobial activity against Propionibacterium acnes NCTC 737 after 48 hrs
- Format: functional
- conditions: NCTC 737, 48 h
Cut-off 30 µg/mL on MIC: below means yes (1), at or above means no (0).

Please review the entries below; each comes with its answer.
CC(C)(C)NC(=S)N/N=C/c1ccc([N+](=O)[O-])o1 = no (0)
CNC(=S)N/N=C/C=C/c1ccc([N+](=O)[O-])o1 = yes (1)
CNC(=S)N/N=C/C=C/c1ccco1 = no (0)
CN[C@H](CC(C)C)C(=O)N[C@H]1C(=O)N[C@@H](CC(N)=O)C(=O)N[C@H]2C(=O)N[C@H]3C(=O)N[C@H](C(=O)N[C@H](C(=O)O)c4cc(O)cc(O)c4-c4cc3ccc4O)[C@H](O)c3ccc(c(Cl)c3)Oc3cc2cc(c3O[C@@H]2O[C@H](CO)[C@@H](O)[C@H](O)[C@H]2O[C@H]2C[C@](C)(N)[C@H](O)[C@H](C)O2)Oc2ccc(cc2Cl)[C@H]1O [VANCOMYCIN] = yes (1)
CNC(=S)N/N=C/c1ccc([N+](=O)[O-])o1 = yes (1)

Does this molecule meet the criterion MIC < 30 µg/mL? CCNC(=S)N/N=C/C=C/c1ccc([N+](=O)[O-])o1 yes (1)

Does this molecule meet the criterion MIC < 30 µg/mL? CC(C)(C)NC(=S)N/N=C/C=C/c1ccc([N+](=O)[O-])o1 yes (1)

Does this molecule meet the criterion MIC < 30 µg/mL? CC(C)(C)NC(=S)N/N=C/C=C/c1ccco1 no (0)

----------
Overview of recorded MIC for various molecules
- System: Staphylococcus aureus
- runDescription: Antimicrobial activity against methicillin-resistant Staphylococcus aureus A1 after 24 hrs
- Assay type: functional

CC(C)(C)NC(=S)N/N=C/c1ccc([N+](=O)[O-])o1 = > 256 µg/mL

Let us examine a further case.
Which measured MIC value corresponds to CC(C)(C)NC(=S)N/N=C/C=C/c1ccco1 ? > 256 µg/mL

----------
- Test system: Staphylococcus aureus
- runDescription: Antimicrobial activity against Staphylococcus aureus ATCC 6538 after 24 hrs
- Format: functional
- conditions: ATCC 6538, 24 h
measurementLabel: MIC

Here's what some known entries look like.
CC(C)(C)NC(=S)N/N=C/C=C/c1ccc([N+](=O)[O-])o1 = > 256 µg/mL
CCNC(=S)N/N=C/C=C/c1ccco1 = > 256 µg/mL
CC(C)NC(=S)N/N=C/C=C/c1ccco1 = > 256 µg/mL

Which measured MIC value corresponds to CC(C)NC(=S)N/N=C/C=C/c1ccc([N+](=O)[O-])o1 ? > 256 µg/mL

Which measured MIC value corresponds to CNC(=S)N/N=C/C=C/c1ccco1 ? > 256 µg/mL

Which measured MIC value corresponds to CC(C)(C)NC(=S)N/N=C/C=C/c1ccco1 ? > 256 µg/mL

----------
- System: Staphylococcus aureus
- runDescription: Antimicrobial activity against methicillin-resistant Staphylococcus aureus A1 after 24 hrs
- Assay type: functional
measurementLabel: MIC

Here's what some known entries look like.
CNC(=S)N/N=C/C=C/c1ccco1 = > 256 µg/mL
CNC(=S)N/N=C/c1ccc([N+](=O)[O-])o1 = 64 µg/mL

Let us examine a further case.
Which measured MIC value corresponds to CCNC(=S)N/N=C/C=C/c1ccco1 ? > 256 µg/mL
